Listing of recorded melting point by entry.

These solved cases illustrate the format of a correct answer.
1) CCCC[C@@H](NC(=O)[C@H](Cc1ccc(O)cc1)NC(=O)OC(C)(C)C)C(=O)NCC(=O)O    174 to 175 °C
2) COc1ccc(C(O)CCS(=O)(=O)c2ccc(S(N)(=O)=O)s2)cc1 (stereo not given)    129 to 130 °C
3) Cc1cc(C(C)N(O)C(N)=O)c(C)s1 (stereo not given)    146 to 147 °C
4) CCOC(=O)N1CCN(CC2CSC3=C(O2)c2ccccc2C(=O)C3=O)CC1 (stereo not given)    185 to 187 °C
5) CCC[C@H]1CC[C@H]([C@H]2CC[C@H](c3ccc(C(C)=O)cc3)CC2)CC1    81 °C
6) CCOCCn1cc2c(C3C(=O)Nc4ccc(Cl)cc43)nc(NCc3cccnc3)nc2n1 (stereo not given)    294 to 296 °C
7) NC(=O)c1cccc(OCCF)c1OCCF    100 to 101 °C
8) Cc1cc(NC(=O)CN2CCN(c3ncccc3C#N)CC2)ccc1F    111 to 113 °C
9) CNc1cc(Br)nc(S(=O)(=O)c2ccc(N)cc2)c1    158 to 160 °C

Pending molecule:
## Task Look up melting point of CCOc1c(C=NOCc2ccccc2)c(=O)n(C)c(=O)n1C and report it.
## Result 93 to 94 °C

====

Listing of recorded melting point by entry.

These solved cases illustrate the format of a correct answer.
1. O=c1n(Cc2ccc([N+](=O)[O-])cc2)c2ccc(Cl)cc2n1C1CCCCC1    139 °C
2. O=c1[nH]c(=Cc2ccc(OCc3ccccc3)cn2)c(=O)[nH]c1=Cc1ccccn1    248 to 250 °C
3. O=C(NC(=O)c1ccc([N+](=O)[O-])cc1Cl)Nc1ccc(Cl)c(Cl)c1    280 °C

## Task Look up melting point of CCOC(=O)c1cnc2c(SC(=O)N(C)C)nccn2c1=O and report it.
## Result 125 to 128 °C

## Task Look up melting point of NS(=O)(=O)c1ccc(NN=C2C(=O)Nc3ccc(C(=O)NCc4cccnc4)cc32)cc1 and report it.
## Result 211 to 215 °C

## Task Look up melting point of CCOC(=O)Cc1c(C)n(Cc2ccc(C(C)(C)C)cc2)c2ccc(OCc3csc(-c4ccccc4)n3)cc12 and report it.
## Result 119 to 120 °C

## Task Look up melting point of NCCC(=O)Nc1ccc(Nc2ccccc2)cc1 and report it.
## Result 108 to 110 °C

## Task Look up melting point of N#CN1CCC(c2nn(-c3ccccc3F)c3ccccc23)CC1 and report it.
## Result 119 to 121 °C

## Task Look up melting point of CN(C(=O)Nc1ccc2ccccc2c1)c1cccc(-c2ccc(CC3SC(=O)NC3=O)cc2)c1 (centres undefined) and report it.
## Result 196 °C

====

Measured property: melting point

1) CCN(CC)c1ccc2c(c1)Oc1cc(N(Cc3ccccc3)C(C)=O)c3ccccc3c1N2C(C)=O    202 to 204 °C
2) CC(C)(C)c1cc(C(O)CN)cc(C(C)(C)C)c1O (stereo not given)    137 to 140 °C
3) COc1ccc(Oc2c(OC)cc([N+](=O)[O-])c3nccc(C)c23)cc1    158 to 160 °C
4) NN(Cc1nccs1)C1CCCN(C(=O)c2ccc(Nc3nccc(Nc4ccc(F)cc4)n3)cc2)C1 (stereo not given)    160 to 165 °C

## Task Look up melting point of CC(c1oc2ccccc2c(=O)c1-c1cccc(F)c1)n1ncc2c(Cl)ncnc21 (stereo not given) and report it.
## Result 197 to 201 °C

====

Measured property: melting point

These solved cases illustrate the format of a correct answer.
1) CS(=O)CC1=C(c2ccccc2)C(=O)N(C(C)(C)C(=O)Nc2cc(F)ccc2F)CO1 (stereo not given)    105 to 107 °C
2) COc1cn(-c2ccc(N3CC4(CC4)OC3=O)cc2F)nc(-c2ccnn2-c2ccccc2)c1=O    200 to 201 °C
3) COc1cc(N)c(Cl)cc1C(=O)NCC1CCN(CCCCCCCC(=O)c2ccccc2)CC1    138 to 140 °C
4) COc1cc(C(=O)O)nc(-c2ccc(N(C)C)cc2)c1    142 to 148 °C
5) CCCc1c(-c2ccc(OC(F)F)c(OC3CC3)c2)[nH]c2cnn(COCC[Si](C)(C)C)c(=O)c12    208 to 210 °C
6) O=S(=O)(c1ccc(Cl)cc1)N1CCC[C@@H](Nc2nccc(-c3c(-c4cccc(CO)c4)nc4sccn34)n2)C1    150 to 155 °C
7) O=C(O)Cc1cc2c(c(C(=O)O)c1)NC(C(F)(F)F)CC2 (stereo not given)    195 to 196 °C
8) CCOC(=O)Cn1c(=O)c(C#N)c(N2CCN(C(=O)c3cccs3)CC2)c2cccnc21    236 °C

## Task Look up melting point of CCOC(=O)c1cc(Br)c(C(=O)OCC)cc1F and report it.
## Result 30 °C

## Task Look up melting point of c1cc2ncc3c(n2n1)N(C1CCCC1)CC3 and report it.
## Result 181 °C

## Task Look up melting point of CC(C)c1cccc(NC(=O)[C@H](Br)C(C)C)c1O and report it.
## Result 108 to 109 °C

## Task Look up melting point of COC(=O)NC1=NCC(c2ccc(I)cc2)CN1 (stereo not given) and report it.
## Result 209 to 210 °C

## Task Look up melting point of C[C@@H]1CN(C(=O)[C@@](C)(O)C(F)(F)F)[C@@H](C)CN1S(=O)(=O)c1ccc(C#N)cc1 and report it.
## Result 186 to 187 °C

## Task Look up melting point of Cn1cc(C(=O)NCc2ccc(Cl)cc2)c(=O)c2cc(/C=C\CO)cc(F)c21 and report it.
## Result 182 to 184 °C

## Task Look up melting point of CN1CCN(c2cc(C(=O)Nc3ccc4c(c3)-c3c(c(C(N)=O)nn3-c3ccc(F)cc3)CC4)ccn2)CC1 and report it.
## Result 277 to 279 °C

## Task Look up melting point of CCOC(=O)C(=O)Nc1ccc(Cl)c(C#N)c1 and report it.
## Result 182 to 183 °C

## Task Look up melting point of Clc1nc(Oc2ccccc2)nc(Oc2ccccc2)n1 and report it.
## Result 119 to 121 °C

## Task Look up melting point of COc1ccc(C(=O)O)c(O)c1O and report it.
## Result 234 °C

## Task Look up melting point of CCCCOc1cccc(C[C@H](NC(=O)c2coc(NS(C)(=O)=O)n2)[C@H](O)CNCc2cccc(CC)c2)c1 and report it.
## Result 78 to 80 °C

## Task Look up melting point of COc1cc(C(S)CS)cc(OC)c1OC (stereo not given) and report it.
## Result 72.5 to 73.5 °C

====

Measured property: melting point

1. N=C(Nc1cc(Cl)cc(NC(=O)/C=C/c2ccccc2C(F)(F)F)c1)c1cccs1    178 to 179 °C
2. C[C@H](COc1ccc(C=C2SC(=S)N(CC(=O)O)C2=O)cc1OCc1ccccc1)c1ccccc1    148 °C
3. O=C(O)CSc1nc(-n2cc(C3c4ccccc4C=Cc4ccccc43)c(=S)[nH]c2=O)ncc1-c1ccc(CC(=O)O)cc1    280 °C
4. O=c1c2ccccc2ncn1-c1nnn[nH]1    259 to 260 °C
5. CCCOc1ccc(CCCOc2nn(C)cc2CC(=O)O)c(Oc2ncc(C(F)(F)F)cc2Cl)c1    95 to 96 °C

## Task Look up melting point of COc1ccc(-n2cnc3ccc(-c4nnc(SC)o4)cc32)cc1 and report it.
## Result 187 to 188 °C

## Task Look up melting point of COc1cc(OC)c(C(C)=O)c(O)c1CC=C(C)C and report it.
## Result 110 to 111 °C

## Task Look up melting point of CCCCCCCOc1ccc(-c2ccc(OCC(C)CC)nn2)cc1 (stereo not given) and report it.
## Result 91 °C

## Task Look up melting point of O=c1c2cc(F)c(N3CCCC3)cc2n(-c2cccc(F)c2)c(=O)n1O and report it.
## Result 239 to 241 °C

## Task Look up melting point of CN(C1CCN(CCC(F)(F)F)CC1)S(=O)(=O)c1ccc(Nc2nccc(Nc3ccc(F)cc3)n2)cc1 and report it.
## Result 195 to 196 °C

====

Listing of recorded melting point by entry.

These solved cases illustrate the format of a correct answer.
1) COC(=O)C=NOCc1c(F)cccc1COc1ccccc1C    108 °C
2) Cn1c(=N)sc2ccccc21    122 °C
3) Cc1nc2c(N)nc3cc(OCCNC(=O)C(C)C)ccc3c2n1CC(C)C    205 to 206 °C
4) CCOC(=O)COc1ccc(C(=O)Nc2cc(OC)ccc2Sc2ccccc2-c2nnn[nH]2)cc1    195 to 197 °C
5) O=C(CNc1ccc2[nH]ncc2c1)N1CCC(Cc2ccc(F)cc2)CC1    113 to 114 °C

## Task Look up melting point of Clc1ccc(N2CCN(Cc3c[nH]c4ncccc34)CC2)nc1 and report it.
## Result 196 to 198 °C
